TARGET_SYSTEM: Recombinant human DGAT2 protein (Homo sapiens (Human))
Sequence (Q96PD7 whole entry): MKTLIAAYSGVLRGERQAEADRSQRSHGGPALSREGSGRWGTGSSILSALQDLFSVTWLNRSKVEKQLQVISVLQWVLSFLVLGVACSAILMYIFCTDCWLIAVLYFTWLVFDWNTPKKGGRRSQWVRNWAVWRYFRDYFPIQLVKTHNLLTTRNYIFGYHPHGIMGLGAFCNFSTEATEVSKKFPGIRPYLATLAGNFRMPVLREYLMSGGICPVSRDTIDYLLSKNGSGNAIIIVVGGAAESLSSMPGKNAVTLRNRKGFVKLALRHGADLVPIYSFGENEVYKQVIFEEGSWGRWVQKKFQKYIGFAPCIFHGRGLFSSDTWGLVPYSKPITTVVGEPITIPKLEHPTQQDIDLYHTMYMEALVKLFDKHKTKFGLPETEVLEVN
PROTOCOL_TEXT: Measurement of inhibitory effect against DGAT2 enzyme activity (SPA, Phospholipid Flash Plate)
TEST_SETTINGS: DGAT2-membrane protein from Sf-21 cells, [14C] oleoyl CoA, 1,2 sn-oleoyl glycerol, 37° C.; read-out: IC50 (concentration of the compound that inhibits TG production by 50%)
Excerpt: In order to prepare the pBacPAK9-DGAT2, which is DGAT2 expression vector, the human DGAT2 gene amplified by polymerase chain reaction (PCR) was cloned into the EcoR1 and Xho1 sites of the pBacPAK9 (clonctech) vector. […] Recombinant human DGAT2 protein was expressed in Sf-21 cells, which are insect cells, by using the BacPack baculovirus expression system (Clontech). […] Protein concentration was quantified by using the BCA Protein Assay Kit (Thermo Scientific). […]
MEASURED_ATTRIBUTE: pIC50
One number for each entry, as −log10 of the molar value.

Param item = CCOc1ccccc1Oc1cccc(-c2cncc(NC(=O)Cc3ccc(CC(=O)O)cc3)n2)c1 ; retrieve measured pIC50.
6.43
